tested on: Plasma; assay: Metabolic stability in mouse plasma at 20 mg/kg, iv measured 15 to 30 mins post dosing by HPLC-MS/MS method; assay type: ADME, organism-based; settings: in vivo

- smiles input: "COC(=O)c1ccc(NCc2cc(Cl)cc(Cl)c2O)cc1O"
  Stability: "Stable"
- smiles input: "O=C(OC1CCCCC1)c1ccc(NCc2cc(Cl)cc(Cl)c2O)cc1O"
  Stability: "Stable"
- smiles input: "CCOC(=O)c1ccc(NCc2cc(Cl)cc(Cl)c2O)cc1O"
  Stability: "Stable"

----------
tested on: Brain; experiment: Drug metabolism in mouse brain assessed as ZL006 formation at 20 mg/kg, iv measured 15 to 30 mins post dosing by HPLC-MS/MS method; assay type: ADME, organism-based; settings: in vivo

- smiles input: "O=C(OC1CCCCC1)c1ccc(NCc2cc(Cl)cc(Cl)c2O)cc1O"
  target system: "Brain"
  Drug metabolism: "metabolite_detected"
- smiles input: "COc1cc(NCc2cc(Cl)cc(Cl)c2O)ccc1C(=O)O"
  target system: "Brain"
  Drug metabolism: "metabolite_notdetected"
- smiles input: "COc1c(Cl)cc(Cl)cc1CNc1ccc(C(=O)O)c(O)c1"
  target system: "Brain"
  Drug metabolism: "metabolite_notdetected"
- smiles input: "CCOC(=O)c1ccc(NCc2cc(Cl)cc(Cl)c2O)cc1O"
  target system: "Brain"
  Drug metabolism: "metabolite_detected"
- smiles input: "COC(=O)c1ccc(NCc2cc(Cl)cc(Cl)c2O)cc1O"
  target system: "Brain"
  Drug metabolism: "metabolite_detected"
- smiles input: "CN(Cc1cc(Cl)cc(Cl)c1O)c1ccc(C(=O)O)c(O)c1"
  target system: "Brain"
  Drug metabolism: "metabolite_notdetected"
